Value source: the supplement of paper PMC10065799

# system-under-test: Jak2 (UniProt O60674)
# Sequence (O60674 whole entry, looked up): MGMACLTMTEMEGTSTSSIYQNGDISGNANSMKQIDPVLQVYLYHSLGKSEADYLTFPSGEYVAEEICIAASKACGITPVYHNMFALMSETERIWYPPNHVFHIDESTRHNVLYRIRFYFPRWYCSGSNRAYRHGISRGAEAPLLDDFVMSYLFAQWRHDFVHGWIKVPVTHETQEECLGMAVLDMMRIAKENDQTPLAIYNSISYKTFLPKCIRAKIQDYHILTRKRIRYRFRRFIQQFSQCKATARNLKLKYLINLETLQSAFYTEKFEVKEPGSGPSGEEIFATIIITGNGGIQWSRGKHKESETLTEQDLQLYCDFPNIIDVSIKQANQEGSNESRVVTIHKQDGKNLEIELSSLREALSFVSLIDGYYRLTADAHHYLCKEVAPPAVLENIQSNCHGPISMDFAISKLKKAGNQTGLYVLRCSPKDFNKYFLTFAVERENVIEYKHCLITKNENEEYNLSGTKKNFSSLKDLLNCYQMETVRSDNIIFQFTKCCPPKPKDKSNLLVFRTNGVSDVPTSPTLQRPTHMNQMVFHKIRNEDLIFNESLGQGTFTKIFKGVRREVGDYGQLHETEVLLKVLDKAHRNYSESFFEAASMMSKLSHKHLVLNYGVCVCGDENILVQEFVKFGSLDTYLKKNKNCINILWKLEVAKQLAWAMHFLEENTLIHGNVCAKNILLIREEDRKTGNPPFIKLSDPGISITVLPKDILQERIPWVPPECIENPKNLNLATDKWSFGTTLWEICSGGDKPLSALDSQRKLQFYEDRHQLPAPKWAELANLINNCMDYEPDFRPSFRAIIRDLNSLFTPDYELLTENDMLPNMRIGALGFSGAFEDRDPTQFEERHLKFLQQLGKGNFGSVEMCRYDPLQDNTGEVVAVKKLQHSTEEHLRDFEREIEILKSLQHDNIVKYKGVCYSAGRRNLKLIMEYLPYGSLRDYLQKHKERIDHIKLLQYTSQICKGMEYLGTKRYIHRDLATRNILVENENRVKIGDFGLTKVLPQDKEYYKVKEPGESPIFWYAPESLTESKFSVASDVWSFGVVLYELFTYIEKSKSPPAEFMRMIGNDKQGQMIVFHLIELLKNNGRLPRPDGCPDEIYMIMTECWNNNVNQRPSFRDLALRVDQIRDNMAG
# method: phosphorylation enrichment, bacterial display (enrichment ratio); higher = better substrate or ligand; peptides without Tyr show the background;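 note: 11-residue human phosphosite peptides and single-mutation variants displayed on the E. coli surface, counted by deep sequencing, each peptide's frequency after selection divided by its frequency in the unselected input library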;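 note: frequency after pTyr selection over input frequency; kinase dosed for 20-30% of maximal phosphorylation in three min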
// reported phosphorylation enrichment for each item listed
Write the value as a bare number.

In the examples that follow, each entry is paired with its recorded phosphorylation enrichment.
| query-sequence | system-under-test | phosphorylation enrichment |
| --- | --- | --- |
| EHTTLYSDNST [KANSL1_Y223_N225D] | Jak2 (UniProt O60674) | 0.654 |
| PYYASYPPSPD [GDAP2_Y491_T489A] | Jak2 (UniProt O60674) | 1.25 |
| WEQELYSQLVY [WAS_Y102] | Jak2 (UniProt O60674) | 1.35 |
| IKGIRYLHHRG [GUCY2D_Y656] | Jak2 (UniProt O60674) | 0.597 |
| FCGFSYDDIPD [TMEM230_Y112_R108C_YF] | Jak2 (UniProt O60674) | 1.22 |
| PNKAVYTKMMT [G6PD_Y401_E398K] | Jak2 (UniProt O60674) | 0.59 |
| AADGRYEVLFL [SEMA3F_Y478] | Jak2 (UniProt O60674) | 1.02 |
| DYYDLYGGEKL [PTPN11_Y66_F71L] | Jak2 (UniProt O60674) | 3.12 |
| GAVGHYVLAER [HFE_Y342_M339V] | Jak2 (UniProt O60674) | 0.453 |
| ADRLEYSRTGL [MMUT_Y287_G284R] | Jak2 (UniProt O60674) | 1.25 |

Qu. Supply reported phosphorylation enrichment belonging to this sequence: KNNDGYTDFAE [MCFD2_Y135_I136T_YF]
Ans. 0.882

Qu. Supply reported phosphorylation enrichment belonging to this sequence: LITTLYISFLG [KCNQ1_Y267_G269S]
Ans. 2.27

Qu. Supply reported phosphorylation enrichment belonging to this sequence: YVFSFYHAFSG [ACTN4_Y265_S262F]
Ans. 1.44
